Tested on: Human aortic endothelial cells (HAEC)
Assay: LDH release cytotoxicity assay, HAEC
Type: cell-based
Details: Endothelial cell, 18 h

Molecule | IC50, µM
CC(C)CCC[C@@H](C)[C@H]1CCC2C3C(CC[C@@]21C)[C@@]1(C)CC[C@H](O)C[C@@]1(O)[C@@H]3C=O (stereo partly shown) [5a] | 18.2

----------
Tested on: WI-L2 human B-lymphocyte line
Test: LDH release cytotoxicity assay, WI-L2
Assay type: cell-based
Settings: Homo sapiens; WIL2; LDH release, 0-100 μM, 18 h
Measured Parameter: IC50 (µM)

Compound | Unit Tag | Measurement
CC(C)CCC[C@@H](C)[C@H]1CCC2C3C(CC[C@@]21C)[C@@]1(C)CC[C@H](O)C[C@@]1(O)[C@@H]3C=O (some centres unmarked) [5a] | µM | 17.7
CC(C)CCC[C@@H](C)[C@H]1CCC2C(CC=O)C([C@@]3(C)CC[C@H](O)CC3=O)CC[C@@]21C (stereo partly drawn) [4a, 3β-Hydroxy-5-oxo-5,6-secocholestan-6-al] | µM | 10.9
